Data origin: PubChem BioAssay (NCI)

For each of the compounds below, state its GI50.
- Test system: HOP-92 NSCLC
- testDetails: NCI tumour cell line growth inhibition, 48 h

Q: Quick one: GI50 for COc1cccc(C2NC(=S)NC(C)=C2C(=O)Nc2ccc(F)c(Cl)c2)c1 (configuration not stated) ?
Result: > 50 µM

Q: Quick one: GI50 for C#COc1cccc(Nc2ncnc3ncc(NC(=O)CCl)cc23)c1 ?
Result: > 62.5 µM

Q: Quick one: GI50 for COc1ccc(Cc2cnc(NC(=O)c3sc4ccccc4c3Cl)s2)cc1 ?
Result: 5.26 µM

Q: Quick one: GI50 for CC1=C([Se]CC(OC(=O)[C@@H](CO)NC(=O)OC(C)(C)C)C(=O)NC(C)(C)C)C(=O)c2ccccc2C1=O (some centres not stated) ?
Result: 1.88 µM

Q: Quick one: GI50 for c1ccc(-c2nn(-c3ccccc3)[n+](-c3cccc4ccccc34)n2)cc1 ?
Result: 1.15 µM

Q: Quick one: GI50 for C/C(=C\CCc1ccoc1)CC/C=C(\C)CCCN1CCC(CO)CC1 ?
Result: 1.44 µM

Q: Quick one: GI50 for O=C(c1cccs1)c1c(C(F)(F)F)n([O-])c2ccc(F)cc2[n+]1=O ?
Result: 0.914 µM

Q: Quick one: GI50 for Cn1cc(C[C@@H](N)C(=O)O)c2ccccc21 ?
Result: > 100 µM

Q: Quick one: GI50 for Cc1cc(-c2nc(-c3ccc(OC(F)(F)F)cc3)no2)nn1Cc1ccnc(N2CCN(C3CC3)CC2)c1 ?
Result: 1.55 µM

Q: Quick one: GI50 for COc1c(CNC(=O)CCl)cc2[nH]c(C)cc2c1CNC(=O)CCl ?
Result: 4.08 µM

Q: Quick one: GI50 for N#Cc1c(-c2ccccc2)cc(-c2ccccc2)n(CCCCC(=O)NO)c1=O ?
Result: 2.23 µM

Q: Quick one: GI50 for CC(=O)OC[C@]12CC[C@@H]([C@@H](C)C(N)=O)[C@@H]1[C@H]1CC[C@@H]3[C@@]4(C)CC[C@H](OC(C)=O)C(C)(C)[C@@H]4CC[C@@]3(C)[C@]1(C)CC2 ?
Result: 5.21 µM
